TGT: Recombinant Human Anaplastic Lymphoma Kinase (Homo sapiens)
Construct: purchased Invitrogen, Carlsbad, Calif
Sequence (Q9UM73 19-1620): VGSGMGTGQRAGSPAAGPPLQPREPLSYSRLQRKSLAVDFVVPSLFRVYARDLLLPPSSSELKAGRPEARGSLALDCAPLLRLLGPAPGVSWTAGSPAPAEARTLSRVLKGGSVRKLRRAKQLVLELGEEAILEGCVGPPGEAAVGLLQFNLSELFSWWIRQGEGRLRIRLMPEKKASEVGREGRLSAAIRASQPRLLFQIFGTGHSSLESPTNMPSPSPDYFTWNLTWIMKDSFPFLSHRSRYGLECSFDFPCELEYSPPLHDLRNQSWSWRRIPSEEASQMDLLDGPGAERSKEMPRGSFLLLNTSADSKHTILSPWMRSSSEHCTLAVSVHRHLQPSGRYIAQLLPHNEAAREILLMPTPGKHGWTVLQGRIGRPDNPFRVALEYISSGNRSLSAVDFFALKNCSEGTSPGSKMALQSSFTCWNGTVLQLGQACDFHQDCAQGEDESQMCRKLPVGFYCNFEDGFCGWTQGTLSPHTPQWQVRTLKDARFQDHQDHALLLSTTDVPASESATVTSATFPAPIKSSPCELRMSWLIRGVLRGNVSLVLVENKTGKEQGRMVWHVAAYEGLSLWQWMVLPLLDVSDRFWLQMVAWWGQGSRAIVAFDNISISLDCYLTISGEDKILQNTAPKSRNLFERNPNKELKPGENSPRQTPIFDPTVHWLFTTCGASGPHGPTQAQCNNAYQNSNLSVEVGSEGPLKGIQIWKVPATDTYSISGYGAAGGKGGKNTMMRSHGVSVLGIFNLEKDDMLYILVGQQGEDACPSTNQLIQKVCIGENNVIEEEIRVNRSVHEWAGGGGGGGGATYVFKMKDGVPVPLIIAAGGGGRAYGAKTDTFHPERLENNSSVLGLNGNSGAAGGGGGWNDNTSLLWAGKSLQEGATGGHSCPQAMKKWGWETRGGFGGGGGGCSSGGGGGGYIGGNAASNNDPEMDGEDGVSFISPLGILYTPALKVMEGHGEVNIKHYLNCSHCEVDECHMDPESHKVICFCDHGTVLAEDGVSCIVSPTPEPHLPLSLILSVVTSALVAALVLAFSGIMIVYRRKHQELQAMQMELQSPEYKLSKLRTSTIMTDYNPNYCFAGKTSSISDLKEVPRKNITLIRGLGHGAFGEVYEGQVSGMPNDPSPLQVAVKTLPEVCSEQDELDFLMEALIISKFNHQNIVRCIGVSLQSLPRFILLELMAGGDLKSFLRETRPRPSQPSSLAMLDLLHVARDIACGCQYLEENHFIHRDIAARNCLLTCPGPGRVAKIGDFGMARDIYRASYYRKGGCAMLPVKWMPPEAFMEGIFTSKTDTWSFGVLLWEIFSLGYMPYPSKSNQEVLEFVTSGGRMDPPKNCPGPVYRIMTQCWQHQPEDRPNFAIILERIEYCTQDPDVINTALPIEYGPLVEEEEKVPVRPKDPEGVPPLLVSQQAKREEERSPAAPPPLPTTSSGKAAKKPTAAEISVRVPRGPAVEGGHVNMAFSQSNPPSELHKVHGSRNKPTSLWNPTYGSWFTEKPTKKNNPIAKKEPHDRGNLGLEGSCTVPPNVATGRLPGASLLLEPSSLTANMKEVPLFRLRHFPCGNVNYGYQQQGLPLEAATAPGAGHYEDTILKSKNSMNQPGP
EXPERIMENT_SUMMARY: ALK HTRF kinase assay
Type: biochemical
MEASUREMENT_SETUP: compound at a concentration of 500 nM or 1 mM (not specified); cells shown as percentage
Structures can show the parent of a compound that is named as a salt.
READOUT_TYPE: ALK % of inhibition at a concentration of 500 nM or 1 mM (%)
Answers are plain numbers, in %.

COMPOUND	OUTPUT_UNIT	MEASUREMENT
O=C(Nc1ccc2cc1CCc1cccc(c1)Nc1ncc(Cl)c(n1)N2)N[C@H]1CCN(C(=O)c2ccccc2)C1 [Example B170, trifluoroacetate]	%	12

Please state, for each entry, its recorded ALK % of inhibition at a concentration of 500 nM or 1 mM.
1. CN(C(=O)Nc1ccc2cc1CCc1cncc(c1)Nc1ncc(Cl)c(n1)N2)[C@H]1CCN(C(=O)c2ccccc2)C1 [Example B291, bis(trifluoroacetate)]
2. O=C(Nc1ccc2cc1CCc1cccc(c1)Nc1ncc(Cl)c(n1)N2)Nc1cccc2ccccc12 [Example B124, trifluoroacetate]
3. CC(C)(C)OC(=O)N[C@@H]1CCN(C(=O)Nc2ccc3cc2CCc2cccc(c2)Nc2ncc(Cl)c(n2)N3)C1
4. O=C(Nc1ccc2cc1CCc1cccc(c1)Nc1ncc(Cl)c(n1)N2)N[C@H]1CCN(C(=O)c2ccno2)C1 [Example B230, trifluoroacetate]
5. CCc1ccc(NC(=O)Nc2ccc3cc2CCc2cccc(c2)Nc2ncc(Cl)c(n2)N3)cc1 [Example B98, trifluoroacetate]
6. CN(C(=O)Nc1ccc2cc1CCc1cncc(c1)Nc1ncc(Cl)c(n1)N2)[C@H]1CCNC1 [Example B288, tris(trifluoroacetate)]

a:
58
17
29
11
41
18

q: Look up ALK % of inhibition at a concentration of 500 nM or 1 mM of O=C(Nc1nccs1)Nc1ccc2cc1CCc1cccc(c1)Nc1ncc(Cl)c(n1)N2 [Example B245, trifluoroacetate] and report it.
a: 41
